# experimental target: alpha-synuclein fibrils (Homo sapiens)
# experiment description: Competitive binding to alpha-synuclein fibrils vs [3H]BF2846 (site 9)
# conditions used: maximal inhibition of [3H]BF2846 binding to alpha-synuclein fibrils
measurement name: max % inh_site9 (%)
Give just the numeric value; % need not be written.

COc1ccc(Nc2ccc3cc(OC(F)F)ccc3n2)cn1    60

# evaluate next
Requested read-out: max % inh_site9. Entry: CCCOc1ccc(Nc2ccc3cc(OCCF)ccc3n2)cn1
60
